These measurements were taken from patent US6413948B1.

molecular target: NAALADase (UniProt P70627)
Measured Attribute: Ki
Please give the number followed by its unit.

Before answering, review these 8 worked examples.
O=C(O)CCC(CP(=O)(O)Cc1ccccc1)C(=O)O (stereo not shown) [drawing 18] | 34.1 nM
O=C(O)CCC(CP(=O)(O)CCCc1ccccc1)C(=O)O (stereo not shown) [drawing 24] | 232 nM
Cc1ccc(CP(=O)(O)CC(CCC(=O)O)C(=O)O)cc1 (stereo not shown) [drawing 27] | 68 nM
O=C(O)CCC(CP(=O)(O)Cc1ccccc1F)C(=O)O (stereo not shown) | 145 nM
O=C(O)CCC(CP(=O)(O)Cc1cccc(C(F)(F)F)c1)C(=O)O (stereo not shown) [drawing 36] | 22.5 nM
CCCCP(=O)(O)CC(CCC(=O)O)C(=O)O (stereo not shown) [drawing 21] | 113 nM
O=C(O)CCC(CP(=O)(O)Cc1ccc(O)cc1)C(=O)O (stereo not shown) | 117 nM
O=C(O)C(CCc1ccccc1)CP(=O)(O)O (stereo not shown) [drawing 33] | 199 nM

If you can, please state the reported Ki value of O=C(O)CCC(CP(=O)(O)c1ccccc1)C(=O)O (stereo not shown) [drawing 19] .
35.8 nM

If you can, please state the reported Ki value of O=C(O)CC(CP(=O)(O)O)C(=O)O (stereo not shown) [2-(phosphonomethyl)succinic acid] .
700 nM
